- assayedTarget: T1, Recombinant human CD5 extracellular domain (CD5-ECD) (human, UniProt P06127 25-372)
- T1 construct: In-house protein made as CD5-ECD - TEV site - hGH fusion; CD5-ECD isolated by TEV cleavage and nickel column; also called CD5-ECD protein
- T1 sequence: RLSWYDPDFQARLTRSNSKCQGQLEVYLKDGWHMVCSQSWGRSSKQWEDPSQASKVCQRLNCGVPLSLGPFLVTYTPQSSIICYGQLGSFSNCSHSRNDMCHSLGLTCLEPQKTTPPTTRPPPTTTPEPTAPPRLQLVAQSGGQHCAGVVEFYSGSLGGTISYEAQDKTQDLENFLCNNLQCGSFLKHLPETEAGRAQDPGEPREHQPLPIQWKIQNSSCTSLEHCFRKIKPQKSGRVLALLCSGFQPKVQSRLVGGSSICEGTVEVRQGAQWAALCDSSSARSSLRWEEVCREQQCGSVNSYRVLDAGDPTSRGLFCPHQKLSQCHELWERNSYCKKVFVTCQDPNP
- procedureSummary: SPR (Biacore 2000), antibody captured by anti-human Fc, CD5-ECD in solution, 1:1 fit;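 further: CM5 chip, binding curves at four CD5-ECD concentrations fitted globally, with the signal of a non-CD5-binding control antibody subtracted as reference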
readoutLabel: pKd
The meaning of pKd here: minus log10 of the concentration in molar units.

Task: Any idea what pKd was measured for Anti-CD5 antibody 12 (4F10) (antibody, human IgG1, V domains shown, also called Ab12; Clone 12) VH: EVQLQESGAELVRPGVSVKISCKGSGYTFTNFAIHWVKQSHAKSLEWIGLISSNSGDVSYNQKFKGKATMTVDKSSSTAYMELARLTSEDSAIYYCARHYGAHNYFDY VL: DIVLTQSPAIMSASPGEQVTMTCRATSSISSSYLHWYQQKSGASPKLWIYGTSNLASGVPTRFSGSGSGTSYSLTISSVEAEDAATYYCQQYSDYPLT ?
Output: 8.93

Task: Any idea what pKd was measured for Anti-CD5 antibody 34 (5O24) (antibody, human IgG1, V domains shown, also called Ab34; Clone 34) VH: EVKLVESGAELVRSGASVKLSCAASGFNIKDYYIHWVKQRPEQGLEWIGWIDPENGRTEYAPKFQGKATMTADTSSNTAYLQLSSLTSEDTAVYYCNNGNYVRHYYFDY VL: DVVLTQSPAILSASPGEKVTMTCRAISSVSYMHWYQQKPGSSPKPWIYATSNLASGVPARFSGSGSGTSYSLTISRVEAEDAATYYCQQWSSNPRT ?
Output: 7.21

Task: Any idea what pKd was measured for Anti-CD5 antibody 1 (1D8) (antibody, human IgG1, V domains shown, also called Ab1; Clone 1) VH: EVQLQESGPELVKPEASVKISCKASGYSFTGYTMNWVKQSHGKNLEWIGLINPYNGGTTYNQKFKGKATLTVDTSSSTAFMELLSLTSEDSAVYYCARDYYGSSPDFDY VL: DIVLTQSTSSLSASLGDRVTINCSASQGISNHLNWFQQKSDGTVKLLIYFTSSLHSGVPSRFSGSGSGTDYSLTISNLEPEDIAAYYCQQYSNLPYT ?
Output: 8.28

Task: Any idea what pKd was measured for Anti-CD5 antibody 15 (8E24) (antibody, human IgG1, V domains shown, also called Ab15; Clone 15) VH: QVTLKESGAELVRPGASVKLSCKASGYSFTSYWMNWVKQRPGQGLEWIGMIHPSDSETRLNQKFKDKATLTVDKSSSTAYMQLSSPTSEDSAVYYCARWGDHDDAMDF VL: DIVLTQSPASLSASVGESVTITCRPSENIYGYFAWYQQRQGKSPQLLVYNAKTLAEGVPSRFSGSGSGTHFSLKINSLQPEDFGTYYCQHHYGTPFT ?
Output: 7.63

Task: Any idea what pKd was measured for Anti-CD5 antibody 17 (7H7) (antibody, human IgG1, V domains shown, also called Ab17; Clone 17) VH: EVQLVESGPGLVQPSQSLSITCTVSGFSLTNYDVHWVRQSPGKGLEWLGVIWNYGNTDYNAAFISRLSIRKDSSKSQVFFTMSSLQTPDTAIYYCARNHGDGYYNWYFDV VL: NIVLTQSPSSLSESLGGKVTITCKASQDINKYIAWYQYKPGKGPRLLIHYTSTLQPGIPSRFSGSGSGRDYSFSISNLEPEDIATYYCLQYDNLWT ?
Output: 9.79

Task: Any idea what pKd was measured for Anti-CD5 antibody 23 (2H11) (antibody, V domains shown, also called Ab23; Clone 23) VH: EVQLQQSGPELVKPGTSVKISCKASGYTFTDYYINWVKQKPGQGLEWIGWIYPGGGNTRYIERFKGKATLTVDTSSSTAYMQLSSLTSEDTAVYFCARNGYWYFDV VL: DIVLTQSPSSLTVTAGEKVTMSCKSSQSLLNQKNYLTWYQQKTGQPPKLLIYWASTRESGVPDRFTGSGSGTDFTLTISSVQAEDLAVYYCQNDYDYPYT ?
Output: 8.32
